Molecular target: T1, extracellular domain of activin receptor type IIB (ActRIIBecd), biotinylated (Homo sapiens (Human), UniProt Q13705 27-117, amino-biotinylated with amine-PEG3-Biotin)
T1 construct: immobilised on a streptavidin-coated sensor chip; also called biotinylated ActRIIBecd; extracellular domain of ActRIIB
T1 sequence: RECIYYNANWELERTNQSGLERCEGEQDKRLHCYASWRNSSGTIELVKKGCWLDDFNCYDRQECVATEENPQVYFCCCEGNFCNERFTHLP
Assay: BIAcore SPR as Example 5 (method not restated); SD ±2.88 nM
MEASURE NAME: Kd (nM)
Just the number in nM, nothing appended.

Ask: Which Kd value is on record for SEQ ID NO: 224, cysteine pairs C15-C44^a (designed binder, disulfides C15-C44 (intra)) GQAKRKGYKRLKSSCKRHPLYVDFKDVGWNDHAVAPPGYHAFYCHGECPFPLADHLNSDNHAIVQTKVNSV ?
Reply: 48.9
